target: EGFR(G719S) (Homo sapiens, UniProt P00533, G719S); construct: purchased Eurofins DiscoverX KINOMEscan (scanTK); experiment: KINOMEscan ScanTK; assay type: binding; details: read-out: %Control @1000nM
Sequence (P00533 25-1210 G719S): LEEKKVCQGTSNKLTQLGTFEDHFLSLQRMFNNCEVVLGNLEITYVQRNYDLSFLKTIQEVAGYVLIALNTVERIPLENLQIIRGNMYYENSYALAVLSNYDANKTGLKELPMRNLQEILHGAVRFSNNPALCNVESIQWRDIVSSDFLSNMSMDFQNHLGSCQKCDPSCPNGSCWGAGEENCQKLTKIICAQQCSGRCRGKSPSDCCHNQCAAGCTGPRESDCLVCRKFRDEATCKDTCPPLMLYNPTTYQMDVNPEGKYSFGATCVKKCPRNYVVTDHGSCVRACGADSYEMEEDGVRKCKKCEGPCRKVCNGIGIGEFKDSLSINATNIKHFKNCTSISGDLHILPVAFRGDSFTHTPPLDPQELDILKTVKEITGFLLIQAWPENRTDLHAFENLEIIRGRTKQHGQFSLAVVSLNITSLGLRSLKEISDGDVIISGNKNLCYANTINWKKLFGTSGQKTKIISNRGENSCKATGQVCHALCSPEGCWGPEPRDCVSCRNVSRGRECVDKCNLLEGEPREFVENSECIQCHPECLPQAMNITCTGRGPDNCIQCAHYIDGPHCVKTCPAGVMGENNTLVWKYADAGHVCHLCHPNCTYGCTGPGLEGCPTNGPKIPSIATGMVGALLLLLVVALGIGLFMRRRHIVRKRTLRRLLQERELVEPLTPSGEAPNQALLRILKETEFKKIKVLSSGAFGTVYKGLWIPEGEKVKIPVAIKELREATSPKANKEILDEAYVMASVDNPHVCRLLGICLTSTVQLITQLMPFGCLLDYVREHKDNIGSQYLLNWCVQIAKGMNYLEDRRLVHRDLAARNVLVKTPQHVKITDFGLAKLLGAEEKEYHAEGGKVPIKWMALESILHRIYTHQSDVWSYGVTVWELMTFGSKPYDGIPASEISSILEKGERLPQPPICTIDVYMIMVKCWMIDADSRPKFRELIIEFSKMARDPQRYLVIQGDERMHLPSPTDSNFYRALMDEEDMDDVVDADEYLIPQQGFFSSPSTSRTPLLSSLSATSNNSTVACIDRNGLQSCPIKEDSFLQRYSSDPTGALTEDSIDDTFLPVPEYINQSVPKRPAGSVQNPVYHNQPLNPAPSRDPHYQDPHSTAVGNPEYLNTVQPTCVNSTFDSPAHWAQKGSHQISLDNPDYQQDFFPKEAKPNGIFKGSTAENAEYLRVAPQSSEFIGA
Measured Attribute: remaining binding at 1 µM (%)
Only the number, expressed in %, is required.

Look up remaining binding at 1 µM: Cc1cnc(S(C)(=O)=O)nc1N1CCCC(n2nc(-c3ccc(Oc4ccccc4)cc3)c3c(N)ncnc32)C1 (stereo not shown)
96

Using the record for COC(=O)c1cnc(S(C)(=O)=O)nc1N1CCCC(n2nc(-c3ccc(Oc4ccccc4)cc3)c3c(N)ncnc32)C1 (stereo not shown) , report its remaining binding at 1 µM.
85

Item CCOC(=O)c1cnc(S(C)(=O)=O)nc1N1CCC[C@@H](n2nc(-c3ccc(Oc4ccccc4)cc3)c3c(N)ncnc32)C1 has what recorded remaining binding at 1 µM?
94

We now examine a further compound.
Requested field: remaining binding at 1 µM. Item: CNC(=O)c1cnc(S(C)(=O)=O)nc1N1CCCC(n2nc(-c3ccc(Oc4ccccc4)cc3)c3c(N)ncnc32)C1 (stereo not shown)
78
